Where these numbers come from: paper PMC3477848

- experimental.system: T1, Dpo1 exo- (SsoDpo1, B-family DNA polymerase) (Sulfolobus solfataricus, UniProt P26811 1-882, D231A;D318A)
- T1 sequence: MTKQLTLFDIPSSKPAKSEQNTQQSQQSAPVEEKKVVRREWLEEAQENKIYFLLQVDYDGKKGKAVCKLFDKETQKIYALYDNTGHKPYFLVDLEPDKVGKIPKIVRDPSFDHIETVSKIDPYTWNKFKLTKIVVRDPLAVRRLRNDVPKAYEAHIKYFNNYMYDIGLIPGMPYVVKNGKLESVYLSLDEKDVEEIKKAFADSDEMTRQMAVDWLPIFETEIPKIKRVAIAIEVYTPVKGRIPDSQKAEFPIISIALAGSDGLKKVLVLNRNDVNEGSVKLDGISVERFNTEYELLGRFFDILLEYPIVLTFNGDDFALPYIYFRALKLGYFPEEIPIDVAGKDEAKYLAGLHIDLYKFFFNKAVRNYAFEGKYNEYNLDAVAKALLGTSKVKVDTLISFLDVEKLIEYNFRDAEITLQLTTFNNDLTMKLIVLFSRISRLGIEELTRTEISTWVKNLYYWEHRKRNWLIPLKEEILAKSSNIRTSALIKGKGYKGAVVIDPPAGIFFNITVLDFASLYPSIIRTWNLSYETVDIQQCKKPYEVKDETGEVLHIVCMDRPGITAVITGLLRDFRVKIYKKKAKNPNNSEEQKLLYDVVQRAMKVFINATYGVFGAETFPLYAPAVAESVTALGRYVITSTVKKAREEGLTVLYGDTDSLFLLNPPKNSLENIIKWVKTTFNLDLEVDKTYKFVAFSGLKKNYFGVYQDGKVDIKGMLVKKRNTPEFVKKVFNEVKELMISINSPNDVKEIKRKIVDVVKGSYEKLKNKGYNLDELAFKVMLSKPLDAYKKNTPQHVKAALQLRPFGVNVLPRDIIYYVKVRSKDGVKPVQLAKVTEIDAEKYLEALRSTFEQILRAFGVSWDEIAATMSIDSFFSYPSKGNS
- assay.procedure: fluorescence anisotropy

{"binder": "TTTTTTTTTTCCCGGGCCGGCGTTTCGCCGGCCCGGG (structured_DNA) [37-nt hairpin primer-template, 5'-Cy3]", "readout.units": "nM", "Kd": 170}
